- measured-on: Sodium-dependent dopamine transporter (Rattus norvegicus, UniProt P23977)
- Sequence (P23977 whole entry): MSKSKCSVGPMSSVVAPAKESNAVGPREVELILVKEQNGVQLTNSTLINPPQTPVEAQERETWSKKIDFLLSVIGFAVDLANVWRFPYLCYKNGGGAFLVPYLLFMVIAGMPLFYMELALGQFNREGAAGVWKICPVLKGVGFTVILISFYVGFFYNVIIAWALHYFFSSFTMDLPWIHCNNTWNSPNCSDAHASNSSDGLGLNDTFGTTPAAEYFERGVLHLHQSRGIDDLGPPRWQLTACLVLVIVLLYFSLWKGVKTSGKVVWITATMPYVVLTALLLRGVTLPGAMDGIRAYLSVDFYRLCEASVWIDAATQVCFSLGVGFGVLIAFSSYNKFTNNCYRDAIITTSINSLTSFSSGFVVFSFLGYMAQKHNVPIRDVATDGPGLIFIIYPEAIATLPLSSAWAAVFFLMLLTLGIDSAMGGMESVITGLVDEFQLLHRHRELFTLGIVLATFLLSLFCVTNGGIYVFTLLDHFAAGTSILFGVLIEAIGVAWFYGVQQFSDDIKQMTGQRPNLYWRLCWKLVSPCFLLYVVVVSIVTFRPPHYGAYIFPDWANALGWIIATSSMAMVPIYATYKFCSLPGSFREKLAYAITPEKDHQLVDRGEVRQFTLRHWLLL
- assay-comment: Ability to inhibit high affinity reuptake of [3H]DA from dopamine transporter into nerve endings synaptosomes
This section presents molecules with their documented pKi values.
Scale note: pKi = -log10(concentration in M).

// below: answered molecules
[[record]]
molecule = "COC(=O)C1C2CC3CCC1N3C/C2=C\\c1cccc(Cl)c1Cl (stereo not given)"
measured_on = "Sodium-dependent dopamine transporter (Rattus norvegicus, UniProt P23977)"
observed_property = "pKi"
endpoint_value = 6.07

[[record]]
molecule = "O=C(OCC1C2CC3CCC1N3C/C2=C\\c1ccc2ccccc2c1)c1ccccc1 (stereo not given)"
measured_on = "Sodium-dependent dopamine transporter (Rattus norvegicus, UniProt P23977)"
observed_property = "pKi"
endpoint_value = 5.26

[[record]]
molecule = "COC(=O)C1C2CC3CCC1N3C/C2=C\\c1ccc2ccc3cccc4ccc1c2c34 (stereo not given)"
measured_on = "Sodium-dependent dopamine transporter (Rattus norvegicus, UniProt P23977)"
observed_property = "pKi"
endpoint_value = 5.00

[[record]]
molecule = "COC(=O)C1C2CC3CCC1N3C/C2=C\\c1ccc(F)cc1 (stereo not given)"
measured_on = "Sodium-dependent dopamine transporter (Rattus norvegicus, UniProt P23977)"
observed_property = "pKi"
endpoint_value = 5.18

[[record]]
molecule = "COC(=O)C1C2CC3CCC1N3C/C2=C\\c1cccc2ccccc12 (stereo not given)"
measured_on = "Sodium-dependent dopamine transporter (Rattus norvegicus, UniProt P23977)"
observed_property = "pKi"
endpoint_value = 5.01


Incoming: I'd like to know its pKi. The molecule in question is COC(=O)C1C2CC3CCC1N3C/C2=C\c1ccc(OC)cc1 (stereo not given)
Outgoing: 5.50

Incoming: Quick one: COC(=O)C1C2CC3CCC1N3C/C2=C\c1ccc(Br)cc1 (stereo not given)
Outgoing: 6.31

Incoming: Continue with COC(=O)C1C2CC3CCC1N3C/C2=C\c1cc(Cl)cc(Cl)c1 (stereo not given)
Outgoing: 5.25

Incoming: Here is the next molecule: COC(=O)C1C2CC3CCC1N3C/C2=C\c1ccc2ccccc2c1 (stereo not given)
Outgoing: 6.13

----------
- measured-on: Norepinephrine transporter (Rattus norvegicus, UniProt Q9WTR4)
- Sequence (Q9WTR4 whole entry): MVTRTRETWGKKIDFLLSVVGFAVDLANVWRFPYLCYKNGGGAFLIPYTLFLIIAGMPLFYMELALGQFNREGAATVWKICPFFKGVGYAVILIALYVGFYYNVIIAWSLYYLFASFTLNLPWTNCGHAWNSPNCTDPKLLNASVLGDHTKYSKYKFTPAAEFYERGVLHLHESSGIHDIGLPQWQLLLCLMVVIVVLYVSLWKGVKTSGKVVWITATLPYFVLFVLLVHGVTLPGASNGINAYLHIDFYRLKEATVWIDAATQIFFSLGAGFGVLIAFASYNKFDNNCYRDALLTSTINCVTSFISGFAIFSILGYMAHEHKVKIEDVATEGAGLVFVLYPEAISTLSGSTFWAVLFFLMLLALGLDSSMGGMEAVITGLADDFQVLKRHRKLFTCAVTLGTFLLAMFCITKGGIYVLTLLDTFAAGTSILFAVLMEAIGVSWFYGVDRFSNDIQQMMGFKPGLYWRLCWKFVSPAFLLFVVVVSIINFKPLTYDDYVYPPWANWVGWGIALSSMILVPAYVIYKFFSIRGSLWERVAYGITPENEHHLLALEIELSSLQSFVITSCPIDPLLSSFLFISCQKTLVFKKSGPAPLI
- assay-comment: Ability to inhibit high affinity reuptake of [3H]-NE (Norepinephrine transporter) into nerve ending synaptosomes prepared from brain regions
// NB: equality with 1000 nM counts as no; only Ki strictly below is yes

Would you please look over these solved cases?
[[record]]
compound = "COC(=O)C1C2CC3CCC1N3C/C2=C\\c1ccc(Br)c(Cl)c1 (configuration not stated)"
label_class = "yes"

[[record]]
compound = "COC(=O)C1C2CC3CCC1N3C/C2=C\\c1cccc(Cl)c1 (configuration not stated)"
label_class = "yes"


Incoming: Hello, is Ki of the following compound strictly smaller than 1000 nM? COC(=O)C1C2CC3CCC1N3C/C2=C\c1cccc2ccccc12 (configuration not stated)
Outgoing: no

Incoming: Repeat for the following compound: COC(=O)C1C2CC3CCC1N3C/C2=C\c1ccc(I)c(Cl)c1 (configuration not stated)
Outgoing: yes

Incoming: Same for CC(=O)OCC1C2CC3CCC1N3C/C2=C\c1cccc(Cl)c1 (configuration not stated)
Outgoing: no

Incoming: // query: O=C(OCC1C2CC3CCC1N3C/C2=C\c1ccc(Br)c(Cl)c1)c1ccccc1 (configuration not stated)
Outgoing: no

Incoming: Another compound: COC(=O)C1C2CC3CCC1N3C/C2=C\c1ccc(Br)cc1 (configuration not stated)
Outgoing: yes

----------
- assay-comment: Uptake ratio Ki of norepinephrine relative to serotonin (5-HT) at monoamine transporter
observed-property: Ratio
Answer as a number with no unit attached.

[[record]]
molecule = "O=C(OCC1C2CC3CCC1N3C/C2=C\\c1ccc(Cl)c(Cl)c1)c1ccc(I)cc1 (configuration not stated)"
observed_property = "Ratio"
endpoint_value = 176

[[record]]
molecule = "CN(C)C(=O)C1C2CC3CCC1N3C/C2=C\\c1ccc(Cl)c(Cl)c1 (configuration not stated)"
observed_property = "Ratio"
endpoint_value = 69.9

[[record]]
molecule = "COC(=O)C1C2CC3CCC1N3C/C2=C\\c1ccc(Cl)cc1 (configuration not stated)"
observed_property = "Ratio"
endpoint_value = 6

[[record]]
molecule = "O=C(OCC1C2CC3CCC1N3C/C2=C\\c1ccc2ccccc2c1)c1ccccc1 (configuration not stated)"
observed_property = "Ratio"
endpoint_value = 32200

[[record]]
molecule = "COC(=O)C1C2CC3CCC1N3C/C2=C\\c1ccc(I)c(Cl)c1 (configuration not stated)"
observed_property = "Ratio"
endpoint_value = 151


Incoming: Consider the molecule shown here: COC(=O)C1C2CC3CCC1N3C/C2=C\c1ccc(C)cc1 (configuration not stated) What is its recorded Ratio?
Outgoing: 9.7

Incoming: Please answer likewise for CON(C)C(=O)C1C2CC3CCC1N3C/C2=C\c1ccc(Cl)c(Cl)c1 (configuration not stated)
Outgoing: 12.9

----------
- assay-comment: Uptake ratio Ki of norepinephrine relative to serotonin (5-HT) at monoamine transporter
# label = Y if Ratio >= 100 else N

[[record]]
compound = "COC(=O)C1C2CC3CCC1N3C/C2=C\\c1ccc(C(C)C)cc1 (stereo not given)"
label_class = "Y"

[[record]]
compound = "COC(=O)C1C2CC3CCC1N3C/C2=C\\c1ccc(C)c(Cl)c1 (stereo not given)"
label_class = "N"

[[record]]
compound = "O=C(Oc1ccccc1)C1C2CC3CCC1N3C/C2=C\\c1ccc(Cl)c(Cl)c1 (stereo not given)"
label_class = "N"

[[record]]
compound = "COC(=O)C1C2CC3CCC1N3C/C2=C\\c1cccc(Cl)c1Cl (stereo not given)"
label_class = "N"


Incoming: Reported Ratio reaches at least 100 for O=C(OCC1C2CC3CCC1N3C/C2=C\c1ccc(Cl)c(Cl)c1)c1ccccc1 (stereo not given) ?
Outgoing: Y

----------
- assay-comment: Uptake ratio Ki of norepinephrine relative to dopamine at monoamine transporter
observed-property: Ratio
Please give the numeric answer without any surrounding text.

Take a look at these entries with their results.
[[record]]
compound = "O=C(OCC1C2CC3CCC1N3C/C2=C\\c1ccc(Cl)c(Cl)c1)c1ccccc1 (stereo not given)"
observed_property = "Ratio"
endpoint_value = 0.22

[[record]]
compound = "COC(=O)C1C2CC3CCC1N3C/C2=C\\c1cccc(Cl)c1Cl (stereo not given)"
observed_property = "Ratio"
endpoint_value = 1.42

[[record]]
compound = "Clc1ccc(/C=C2\\CN3C4CCC3C(COc3ccc(I)cc3)C2C4)cc1Cl (stereo not given)"
observed_property = "Ratio"
endpoint_value = 0.18


Now for another entry.
Incoming: Tell me the measured Ratio of CC(C)OC(=O)C1C2CC3CCC1N3C/C2=C\c1ccc(Cl)c(Cl)c1 (stereo not given) , please.
Outgoing: 0.25

----------
Form field: Ratio (one value per entry).
- assay-comment: Uptake ratio Ki of dopamine relative to serotonin (5-HT) at monoamine transporter
Answer field: number only, no words.

Below, each entry is followed by its recorded Ratio result.
[[record]]
compound = "COC(=O)C1C2CC3CCC1N3C/C2=C\\c1cccc(Cl)c1Cl (stereo not given)"
endpoint_value = 2.4

[[record]]
compound = "O=C(OCC1C2CC3CCC1N3C/C2=C\\c1ccc(Cl)c(Cl)c1)c1ccc(I)cc1 (stereo not given)"
endpoint_value = 363

[[record]]
compound = "COC(=O)C1C2CC3CCC1N3C/C2=C\\c1ccc(C)cc1 (stereo not given)"
endpoint_value = 43.3

[[record]]
compound = "Clc1ccc(/C=C2\\CN3C4CCC3C(COc3ccc(I)cc3)C2C4)cc1Cl (stereo not given)"
endpoint_value = 11.7

[[record]]
compound = "CC(C)OC(=O)C1C2CC3CCC1N3C/C2=C\\c1ccc(Cl)c(Cl)c1 (stereo not given)"
endpoint_value = 15


Incoming: Ratio lookup needed for CC(=O)OCC1C2CC3CCC1N3C/C2=C\c1ccc(Cl)c(Cl)c1 (stereo not given) , thanks.
Outgoing: 1170

Incoming: Follow-up item: O=C(Oc1ccccc1)C1C2CC3CCC1N3C/C2=C\c1ccc(Cl)c(Cl)c1 (stereo not given)
Outgoing: 91.9

Incoming: // same read-out, input: COC(=O)C1C2CC3CCC1N3C/C2=C\c1ccc2ccc3cccc4ccc1c2c34 (stereo not given)
Outgoing: 11.5

----------
- assay-comment: Uptake ratio Ki of norepinephrine relative to serotonin (5-HT) at monoamine transporter
Item-by-item account of Ratio

# example entries with known answers
[[record]]
compound = "COC(=O)C1C2CC3CCC1N3C/C2=C\\c1ccc(C(F)(F)F)cc1 (stereo unspecified)"
endpoint_value = 145

[[record]]
compound = "COC(=O)C1C2CC3CCC1N3C/C2=C\\c1ccc(Br)cc1 (stereo unspecified)"
endpoint_value = 16

[[record]]
compound = "CC(=O)OCC1C2CC3CCC1N3C/C2=C\\c1ccc2ccccc2c1 (stereo unspecified)"
endpoint_value = 153

[[record]]
compound = "O=C(OCC1C2CC3CCC1N3C/C2=C\\c1ccc(Br)cc1)c1ccccc1 (stereo unspecified)"
endpoint_value = 1130


Then this compound:
Incoming: Consider the compound shown here: O=C(OCC1C2CC3CCC1N3C/C2=C\c1ccc(Br)c(Cl)c1)c1ccccc1 (stereo unspecified) What is its recorded Ratio?
Outgoing: 1200
